assay: Acute toxicity in mice (intraperitoneal); details: mouse, in vivo, ip; JCL/ICR male mice, 5 weeks; administration into the peritoneal cavity; mortality after two weeks; read-out: LD₅₀
MEASURE NAME: LD50 at 336 h

If you can, please state the reported LD50 at 336 h value of "CC1=C(C(=O)O)COC1=O" .
~200 mg/kg
